- Tested on: 769-P
- protocol notes: AUC of dose-response viability curve, drug alone (arbitrary (AUC of normalised viability)); higher = less growth inhibition
- run parameters: treatment: drug alone; 5 days

structure smiles	AUC of dose-response viability curve
COc1cccc2cc(-c3nc([C@H]4CC[C@H](C(=O)O)CC4)n4ncnc(N)c34)[nH]c12	3.12
CCS(=O)(=O)Nc1ccc2c(c1)/C(=C(/Nc1ccc(CN3CCCCC3)cc1)c1ccccc1)C(=O)N2	2.53
Cn1cnc(-c2cc3nccc(Oc4ccc(NC(=S)NC(=O)Cc5ccccc5)cc4F)c3s2)c1	3.46
FC(F)(F)c1ccc(Nc2nc3cc(Oc4ccnc(-c5ncc(C(F)(F)F)[nH]5)c4)ccc3[nH]2)cc1	3.24
CCCS(=O)(=O)Nc1ccc(F)c(C(=O)c2c[nH]c3ncc(Cl)cc23)c1F	3.18
